system.tested: α2A (Homo sapiens, UniProt P08913)
Sequence (P08913 whole entry): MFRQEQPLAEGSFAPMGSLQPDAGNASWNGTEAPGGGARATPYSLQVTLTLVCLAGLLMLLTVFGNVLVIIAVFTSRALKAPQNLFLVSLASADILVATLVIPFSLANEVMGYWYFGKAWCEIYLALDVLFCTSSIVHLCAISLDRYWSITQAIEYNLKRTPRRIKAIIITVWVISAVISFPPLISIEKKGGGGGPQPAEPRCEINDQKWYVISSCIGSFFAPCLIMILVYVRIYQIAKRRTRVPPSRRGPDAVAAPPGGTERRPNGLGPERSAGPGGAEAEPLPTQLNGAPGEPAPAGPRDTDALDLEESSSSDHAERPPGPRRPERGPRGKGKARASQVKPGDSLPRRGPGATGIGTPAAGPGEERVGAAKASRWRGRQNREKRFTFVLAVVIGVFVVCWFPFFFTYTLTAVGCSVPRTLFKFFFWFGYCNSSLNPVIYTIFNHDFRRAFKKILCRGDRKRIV
assay.notes: Radioligand displacement, α2A
test.context: Ki, [3H] radioligand Rauwolscine; Human, Cloned
metric: Ki

GET /values?readout=Ki&item= N=C(N)Nc1ccc2[nH]c3c(c2c1)C[C@@]1(O)[C@H]2Cc4ccc(O)c5c4[C@@]1(CCN2CC1CC1)[C@H]3O5
≥ 10 µM

====

system.tested: H2 (Homo sapiens, UniProt P25021)
Sequence (P25021 whole entry): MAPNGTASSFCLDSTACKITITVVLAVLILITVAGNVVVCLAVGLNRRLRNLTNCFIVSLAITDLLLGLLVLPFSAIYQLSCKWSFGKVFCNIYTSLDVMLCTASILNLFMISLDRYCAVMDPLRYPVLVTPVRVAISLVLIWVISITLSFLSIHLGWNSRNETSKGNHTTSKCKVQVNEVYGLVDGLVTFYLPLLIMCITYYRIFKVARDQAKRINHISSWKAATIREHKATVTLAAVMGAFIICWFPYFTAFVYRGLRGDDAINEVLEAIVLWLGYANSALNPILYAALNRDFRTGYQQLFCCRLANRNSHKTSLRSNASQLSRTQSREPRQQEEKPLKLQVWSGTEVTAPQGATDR
assay.notes: Radioligand displacement, H2
test.context: K i, H2; radioligand displacement (Table 1)
metric: pKi
Please report pKi as the negative decimal logarithm of the molar concentration, giving only the number.

GET /values?readout=pKi&item= CC(C)[C@@H](CN1CC[C@@](C)(c2cccc(O)c2)[C@@H](C)C1)NC(=O)[C@H]1Cc2ccc(O)cc2CN1
5.74

====

system.tested: 5-HT2b (Homo sapiens, UniProt P41595)
Sequence (P41595 whole entry): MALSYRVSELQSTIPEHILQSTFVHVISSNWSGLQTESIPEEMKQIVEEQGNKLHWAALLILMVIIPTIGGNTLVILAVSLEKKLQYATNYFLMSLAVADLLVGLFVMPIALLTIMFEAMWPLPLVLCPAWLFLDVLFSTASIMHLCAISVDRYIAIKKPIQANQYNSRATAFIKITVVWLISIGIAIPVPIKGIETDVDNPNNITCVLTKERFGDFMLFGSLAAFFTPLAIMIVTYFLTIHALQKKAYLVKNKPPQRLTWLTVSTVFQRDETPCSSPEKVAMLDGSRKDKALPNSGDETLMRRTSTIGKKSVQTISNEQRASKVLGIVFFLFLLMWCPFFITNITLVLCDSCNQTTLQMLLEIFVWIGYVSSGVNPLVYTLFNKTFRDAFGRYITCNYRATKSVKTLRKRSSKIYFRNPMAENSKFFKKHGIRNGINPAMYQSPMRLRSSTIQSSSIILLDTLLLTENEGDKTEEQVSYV
assay.notes: Radioligand displacement, 5-HT2b
Format: binding
test.context: [3H] radioligand LSD; Human, Cloned; read-out: Ki
metric: Ki

GET /values?readout=Ki&item= CC(C)[C@@H](CN1CC[C@@](C)(c2cccc(O)c2)[C@@H](C)C1)NC(=O)[C@H]1Cc2ccc(O)cc2CN1
≥ 10 µM

====

system.tested: UniProtKB P08173
Sequence (P08173 whole entry): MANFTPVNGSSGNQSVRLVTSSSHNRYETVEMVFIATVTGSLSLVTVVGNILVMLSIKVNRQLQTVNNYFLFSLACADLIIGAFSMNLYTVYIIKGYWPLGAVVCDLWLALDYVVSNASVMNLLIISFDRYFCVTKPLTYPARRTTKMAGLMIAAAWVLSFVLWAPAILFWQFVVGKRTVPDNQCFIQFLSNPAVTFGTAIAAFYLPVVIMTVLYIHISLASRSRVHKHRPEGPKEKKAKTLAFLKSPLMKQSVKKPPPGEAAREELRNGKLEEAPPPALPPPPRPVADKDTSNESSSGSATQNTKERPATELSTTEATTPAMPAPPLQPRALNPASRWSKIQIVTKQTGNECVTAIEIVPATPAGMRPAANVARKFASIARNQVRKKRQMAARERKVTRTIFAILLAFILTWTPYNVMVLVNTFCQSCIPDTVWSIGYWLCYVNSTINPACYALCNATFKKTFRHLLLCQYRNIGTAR
assay.notes: Radioligand displacement, M4
Assay type: binding
test.context: [3H] radioligand QNB; Human, Cloned; read-out: Ki
metric: Ki

GET /values?readout=Ki&item= CC(C)[C@@H](CN1CC[C@@](C)(c2cccc(O)c2)[C@@H](C)C1)NC(=O)[C@H]1Cc2ccc(O)cc2CN1
≥ 10 µM

====

Reported efflux ratio at 120 min values for a set of compounds
assay.notes: Caco-2 cell monolayer permeation
test.context: human, Caco-2, pH 7.4
API doc: respond with a numeric literal and nothing else, no unit.

GET /values?readout=efflux ratio at 120 min&item= N=C(N)Nc1ccc2[nH]c3c(c2c1)C[C@@]1(O)[C@H]2Cc4ccc(O)c5c4[C@@]1(CCN2CC1CC1)[C@H]3O5 [GNTI, 5′-guanidinonaltrindole]
3.1

Shifting focus to the compound that follows.
GET /values?readout=efflux ratio at 120 min&item= O=C1CC[C@@]2(O)[C@H]3Cc4ccc(O)c5c4[C@@]2(CCN3CC2CC2)[C@H]1O5 [Naltrexone]
5.7

====

system.tested: UniProt P28335
Sequence (P28335 33-458): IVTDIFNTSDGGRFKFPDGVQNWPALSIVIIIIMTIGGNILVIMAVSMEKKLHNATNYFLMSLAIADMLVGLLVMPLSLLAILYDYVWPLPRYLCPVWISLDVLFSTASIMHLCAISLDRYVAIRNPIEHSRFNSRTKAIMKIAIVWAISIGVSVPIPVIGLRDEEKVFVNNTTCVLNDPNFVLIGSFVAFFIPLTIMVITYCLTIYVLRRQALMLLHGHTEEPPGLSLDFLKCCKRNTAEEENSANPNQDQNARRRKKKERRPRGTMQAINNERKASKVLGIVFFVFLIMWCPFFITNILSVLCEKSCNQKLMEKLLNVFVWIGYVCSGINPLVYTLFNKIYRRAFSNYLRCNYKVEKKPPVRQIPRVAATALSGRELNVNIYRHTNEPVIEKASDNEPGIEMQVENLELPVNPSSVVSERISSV
assay.notes: Radioligand displacement, 5-HT2c
Assay type: binding
test.context: [3H] radioligand Mesulergine; Human, Cloned; read-out: Ki
metric: Ki

Identify the measured Ki of CC(C)[C@@H](CN1CC[C@@](C)(c2cccc(O)c2)[C@@H](C)C1)NC(=O)[C@H]1Cc2ccc(O)cc2CN1 [JDTic] for UniProt P28335.
≥ 10 µM

====

system.tested: non-opioid receptors and transporters
assay.notes: Radioligand displacement panel, non-opioid targets
test.context: read-out: K i for all non-opioid targets; 43 non-opioid targets
pKi: −log10 of the molar value.
metric: pKi

GET /values?readout=pKi&item= N=C(N)Nc1ccc2[nH]c3c(c2c1)C[C@@]1(O)[C@H]2Cc4ccc(O)c5c4[C@@]1(CCN2CC1CC1)[C@H]3O5
< 5.70

====

Reported pKi values for a set of molecules
system.tested: H1 (Homo sapiens)
Sequence (P35367 whole entry): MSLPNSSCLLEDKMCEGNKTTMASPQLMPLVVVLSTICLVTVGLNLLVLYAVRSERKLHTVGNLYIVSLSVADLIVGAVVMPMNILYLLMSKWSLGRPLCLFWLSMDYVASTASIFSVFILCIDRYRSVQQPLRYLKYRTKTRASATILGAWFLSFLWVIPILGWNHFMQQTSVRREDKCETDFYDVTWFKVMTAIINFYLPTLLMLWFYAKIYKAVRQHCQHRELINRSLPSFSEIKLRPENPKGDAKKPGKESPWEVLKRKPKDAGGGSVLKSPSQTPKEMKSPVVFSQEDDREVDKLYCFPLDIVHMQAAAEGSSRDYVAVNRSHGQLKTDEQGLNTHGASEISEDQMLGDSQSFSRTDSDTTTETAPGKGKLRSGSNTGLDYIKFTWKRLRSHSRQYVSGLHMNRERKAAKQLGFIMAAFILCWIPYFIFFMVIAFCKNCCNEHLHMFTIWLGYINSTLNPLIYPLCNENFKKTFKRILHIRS
assay.notes: Radioligand displacement, H1
Type: binding
pKi: −log10 of the molar value.

GET /values?readout=pKi&item= N=C(N)Nc1ccc2[nH]c3c(c2c1)C[C@@]1(O)[C@H]2Cc4ccc(O)c5c4[C@@]1(CCN2CC1CC1)[C@H]3O5
≤ 5.00

Shifting focus to the molecule that follows.
GET /values?readout=pKi&item= Oc1ccc2c3c1O[C@H]1c4[nH]c5c(c4C[C@@]4(O)[C@@H](C2)N(CC2CC2)CC[C@]314)C[C@@]1(O)[C@H]2Cc3ccc(O)c4c3[C@@]1(CCN2CC1CC1)[C@H]5O4
≤ 5.00
